- tested_system: Chitinase (Hypocrea rufa)
- Sequence (D2K848 whole entry): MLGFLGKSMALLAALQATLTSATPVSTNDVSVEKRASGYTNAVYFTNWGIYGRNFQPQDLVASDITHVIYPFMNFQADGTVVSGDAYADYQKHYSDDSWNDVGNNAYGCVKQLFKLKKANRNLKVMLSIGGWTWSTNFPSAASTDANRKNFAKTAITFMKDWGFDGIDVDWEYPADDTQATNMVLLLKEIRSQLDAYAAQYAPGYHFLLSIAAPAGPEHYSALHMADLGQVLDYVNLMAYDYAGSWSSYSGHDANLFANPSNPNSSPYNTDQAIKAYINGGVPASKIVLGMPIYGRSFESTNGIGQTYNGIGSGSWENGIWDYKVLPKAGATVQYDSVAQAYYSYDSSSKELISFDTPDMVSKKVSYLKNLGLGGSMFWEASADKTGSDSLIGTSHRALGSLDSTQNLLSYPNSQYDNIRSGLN
Label key: T means IC50 under 100 µM; F means IC50 of 100 µM or more.

test_smiles | answer_label
C/C=C/CNC(=N)NCCCCCCCCN1CCCCCCOc2ccccc2CNC(=N)NC1=O | T

A record lists `C/C=C/CNC(=N)NCCCCCCCCN1CCCCCOc2ccccc2CNC(=N)NC1=O` . Is its IC50 below 100 µM?
T

Moving on to `CNC(=O)NC(=N)NCCCCCCCCN1CCCCCCOc2ccccc2CNC(=N)NC1=O`
T

Same thing, different molecule: `C/C=C/CNC(=N)NCCCCCCCCN1CCCCCCCCNC(=N)NC1=O`
F

Origin of measurements: ChEMBL document CHEMBL4033747
